# TARGET_DESC: BosR (rBosR) (UniProt O51592 1-176)
# ASSAY: EMSA; 20 mM Hepes pH 7.5, 50 mM KCl, 1 mM MgCl2, 1 mM DTT, 5% glycerol, 100 ug/ml BSA, 50 ug/ml poly[d(A-T)], 30 fmol probe in 20 ul, 37 C 30 min
# STUDY_CONDITIONS: protein: recombinant; tags: none (His6-SUMO tag removed by SUMO protease); chain copies: 2; label: digoxigenin 3' end; blunt
READOUT_NAME: binding result

ZM126 (dsDNA) DNA 1: TTGCATGGAAATTAAGTAGTAAAAACTTAATCACAATATTCAAGAAAGGGGAGAAAATAT DNA 2: ATATTTTCTCCCCTTTCTTGAATATTGTGATTAAGTTTTTACTACTTAATTTCCATGCAA : no binding
ZM216 (ZM215 DR mutant) (dsDNA) DNA 1: TGGTTTAGATGGCCTTTTTTTCTCAATTCAGCAATTTCTGAATATAGAATTTTCATATCT DNA 2: AGATATGAAAATTCTATATTCAGAAATTGCTGAATTGAGAAAAAAAGGCCATCTAAACCA : no binding
ZM149 (dsDNA) DNA 1: TTTAGTTTAAAACCATTTTTAAATTAAATTGGCACAGTTTTTGCATTTTAACAGGCAAAA DNA 2: TTTTGCCTGTTAAAATGCAAAAACTGTGCCAATTTAATTTAAAAATGGTTTTAAACTAAA : binds
ZM210 (ZM155 DR mutant) (dsDNA) DNA 1: CTCAAAGCTTTGGCCTTGCCGATTTGGCCTACAATCAATTACAAAGCTGAGATCTGTCGA DNA 2: TCGACAGATCTCAGCTTTGTAATTGATTGTAGGCCAAATCGGCAAGGCCAAAGCTTTGAG : no binding
